Study system: L-type calcium channel (Rattus norvegicus, UniProt P22002+P27732+Q02485)
Run description: Inhibition of rat L-type calcium channel at 10 uM relative to control
Type: protein assay
Attribute measured: inhibition at 10 µM
Field note: include the unit after the figure.

Qu. Which inhibition at 10 µM reading was recorded for the compound O=C(O)c1c(O)cccc1CCc1ccc2ccccc2c1 ?
Ans. -8%

###

Run description: Critical micellar concentration of the compound
Type: physicochemical
Entries and their measured CMC follow.
API: value field is a number in µM; no unit string.

Qu. Which CMC reading was recorded for the compound COC(=O)c1c(O)cccc1CCCCC(C)CCCC(C)C (stereo unspecified) ?
Ans. 20

New cases:
Qu. Which CMC reading was recorded for the compound CCCCCCCCCc1cccc(OC)c1C(=O)OC ?
Ans. 20

Qu. Try this compound next: COC(=O)c1c(O)cccc1CCc1ccc2ccccc2c1
Ans. 20

Qu. Try this compound next: CC(C)CCCC(C)CCCCc1cccc(O)c1C(=O)O (stereo unspecified)
Ans. 30

Qu. Try this compound next: CCCCCCCCCc1cccc(O)c1C(=O)OC
Ans. 20
